The entries below are paired with their reported apparent KD of MS2 coat protein.
tested on: MS2 coat protein; test: apparent KD of MS2 coat protein, switch ON state; designed switch direction (-1 OFF switch, 1 ON switch): -1; higher = weaker reporter binding; settings: FMN input: 0 or 200 uM; Eterna round: R93 (includes R88 designs)
Form entry: value (nM) — number only.

* AAAAACCAAGGAUAUACAUGAGGAUCACCCAUGUAAAAAAAAAAAAAGGGAAAAAAAAGUAGAAGGUGGAAAAA [Sekhemre Shedtawy Sobekemsaf II] | 20.9
* AACAUGUAAGGAUAUCCAAGAAAAGAAAAGAAAGAAAAGAAGGAGAAGGUACAUGAGGAUCACCCAUGUAAGAA [EteRNA is fun!] | 21.6

Proceeding to the next sequence to report its apparent KD of MS2 coat protein.
Identify measured apparent KD of MS2 coat protein associated with GAAAAGUGAGGAUAUACUUUGGGAAAAGAAAAGAUGAUGUUACAUGAGGAUCACCCAUGUAGAAGGCACAAAAA [Mat - Exclusion 2 - Mod - D155] 25.2

###

test system: MS2 coat protein; experiment: apparent KD of MS2 coat protein; designed switch direction (-1 OFF switch, 1 ON switch): -1; higher = weaker reporter binding; conditions: input ligand: none
The entries below are paired with their reported apparent KD of MS2 coat protein.
Form entry: value (nM) — number only.

Worked set:
* CUUCACCCACCAGAGCUCACCCACAUACCUACUCAGGUGACAUGAGGAUCACCCAUGUUUUUUGCCCGUCUUAUCUU [Vexebedi] (Eterna round: R96, puzzle: Sensor v3, turn-off variant 2) | 37.5
* GAGUAGUAAGGAUAUGUCUCUGGUGGCUACGGUCACUAGAGGCAGAAGGUACAUGAGGAUCACCCAUGUUUCUC [ExDelusion 9 - Jieux - Exclusion 4] (Eterna round: R97, puzzle: Exclusion 4) | 39.2
* UAUUAGCAAGUGAGAUCCGACAUGAGGAUCACCCAUGUGCUCGUCUUAUAAGGUAAUAUAAGAAAACUUAUAUUACC [Elimod 6 - Jieux - Sensor, turn-off variant 1] (Eterna round: R97, puzzle: Sensor, turn-off variant 1) | 233
* CCCUGACAUGAGGAUCACCCAUGUUAGGAUAUAACAUUUGACGCGACAGUGUGGAGUGUUAGAAGGGAUAUGGG [-28.4, -26.7 kcal, A 28%] (Eterna round: R97, puzzle: Exclusion 1) | 20.8
* GCCUCACAUGAGGAUCACCCAUGUGAGGAUAUUGAGUUACCAGGCGAACAAGCGACUACGAGAAGGCACGUGGA [Eternabot (L2) Solution 85] (Eterna round: R97, puzzle: Exclusion 1) | 13.9

Provide MS2 coat protein apparent KD of MS2 coat protein reading for AUGGGUCCUCUCGGAGCUACAUGAGGAUCACCCAUGUGUAUUGAGGAUAUCCACUGCUCAGGACUGGAGAAGGCAGUGUACUGU [Ex NG3 #88] (Eterna round: R96, puzzle: Exclusion NG 3) . 59.9

Provide MS2 coat protein apparent KD of MS2 coat protein reading for UCUCGGUAAGGAUAUGCGCCGGGAUGAAGAUCCCGAAGCAUGCAGAAGGUACAUGAGGAUCACCCAUGUCUGUU [Eternabot (L1) Solution 76] (Eterna round: R97, puzzle: Exclusion 4) . 20.5

Provide MS2 coat protein apparent KD of MS2 coat protein reading for UAAUGGACAGGAUAUACAUGAGGAUCACCCAUGUCGGCCGGUCCUGUUCUAAGAGCGAGUAGAAGGGUCACGUU [Eternabot (L1) Solution 4] (Eterna round: R97, puzzle: Exclusion 3) . 11.9

Provide MS2 coat protein apparent KD of MS2 coat protein reading for AGCUAGUCAGGAUAUUCUAAAUAUUACAUGAGGAUCACCCAUGUGAAUGGACAAGGGUGUGAAGAAGGGACUAGCG [Omei Ex5 A12] (Eterna round: R97, puzzle: Exclusion 5) . 959
